Target: human PAH with the R408W mutation (Homo sapiens, UniProt P00439, R408W)
Construct: expressed in transfected cells
Sequence (P00439 whole entry R408W): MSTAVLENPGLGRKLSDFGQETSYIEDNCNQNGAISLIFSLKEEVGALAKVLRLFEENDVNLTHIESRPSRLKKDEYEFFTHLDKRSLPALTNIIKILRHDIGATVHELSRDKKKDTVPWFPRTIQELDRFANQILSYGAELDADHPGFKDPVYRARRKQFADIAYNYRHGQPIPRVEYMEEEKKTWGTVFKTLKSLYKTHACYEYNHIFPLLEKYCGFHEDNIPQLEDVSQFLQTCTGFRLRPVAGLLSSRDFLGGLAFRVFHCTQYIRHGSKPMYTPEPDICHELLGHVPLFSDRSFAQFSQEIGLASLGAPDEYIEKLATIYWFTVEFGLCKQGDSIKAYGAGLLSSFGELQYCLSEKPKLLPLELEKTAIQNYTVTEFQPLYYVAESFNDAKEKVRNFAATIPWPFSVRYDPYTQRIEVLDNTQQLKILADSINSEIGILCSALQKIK
Assay: Cell Based Phenylalanine Flux Assay
Conditions: A375 cells expressing human R408W PAH; 24 hrs compound incubation; 13C-Tyrosine by LC-MS; average where tested multiple times; read-out: AC50
AC50 values, listed per item
MEASURE NAME: AC50

MOLECULE: CC(C)(C)c1ncc(C(=O)N2CCc3[nH]cnc3[C@H]2c2nc3ccccc3s2)o1
REPORTED RESULT: < 0.5 µM

MOLECULE: Cc1nc(C(F)(F)F)oc1C(=O)N1CCc2[nH]cnc2[C@@H]1c1nc2ccccc2s1
REPORTED RESULT: 1 to 5 µM

MOLECULE: O=C(c1cnn2ccccc12)N1CCc2nc[nH]c2[C@@H]1c1nc2c(F)cccc2s1
REPORTED RESULT: 1 to 5 µM

MOLECULE: Cn1cc(-c2nc(C3CC3)c(C(=O)N3CCc4[nH]cnc4[C@H]3c3nc4ccccc4s3)o2)cn1
REPORTED RESULT: < 0.5 µM

MOLECULE: O=C(CCc1nccs1)N1CCc2[nH]cnc2[C@H]1c1nc2cccc(F)c2s1
REPORTED RESULT: 0.5 to 1 µM

MOLECULE: O=C(CC1CC1(F)F)N1CCc2[nH]cnc2[C@H]1c1nc2ccccc2s1 (single isomer, unassigned) [Example 1271]
REPORTED RESULT: < 0.5 µM

MOLECULE: O=C(c1cnco1)N1CCc2[nH]cnc2[C@H]1c1nc2c(F)cccc2s1
REPORTED RESULT: 0.5 to 1 µM

MOLECULE: CC(C)(F)c1ncc(C(=O)N2CCc3[nH]cnc3[C@@H]2c2nc3ccccc3s2)o1
REPORTED RESULT: 1 to 5 µM

MOLECULE: N#Cc1ncoc1C(=O)N1CCc2[nH]cnc2[C@H]1c1nc2ccccc2s1
REPORTED RESULT: < 0.5 µM

MOLECULE: O=C(c1cnn2ccc(Cl)cc12)N1CCc2[nH]cnc2[C@@H]1c1nc2ccc(F)cc2s1
REPORTED RESULT: > 5 µM

MOLECULE: Cc1nc([C@H](C)O)oc1C(=O)N1CCc2[nH]cnc2[C@@H]1c1nc2c(F)cccc2s1
REPORTED RESULT: > 5 µM

MOLECULE: Cn1cc(-c2ncc(C(=O)N3CCc4[nH]cnc4[C@@H]3c3nc4ccccc4s3)s2)c(C2CC2)n1
REPORTED RESULT: 1 to 5 µM

MOLECULE: Cc1cnc(CCC(=O)N2CCc3[nH]cnc3[C@H]2c2nc3ccccc3s2)s1
REPORTED RESULT: 0.5 to 1 µM

MOLECULE: Cc1cccc2nc([C@@H]3c4nc[nH]c4CCN3C(=O)c3cncs3)sc12
REPORTED RESULT: < 0.5 µM

MOLECULE: O=C(c1cnn(CC(F)(F)F)c1Cl)N1CCc2[nH]cnc2[C@@H]1c1nc2c(F)cccc2s1
REPORTED RESULT: 1 to 5 µM

MOLECULE: O=C(c1oc(NC2CC2)nc1C(F)(F)F)N1CCc2[nH]cnc2[C@H]1c1nc2c(F)cccc2s1
REPORTED RESULT: < 0.5 µM

MOLECULE: Cn1ncc(C(=O)N2CCc3[nH]cnc3[C@@H]2c2nc3ccccc3s2)c1C(F)F
REPORTED RESULT: > 5 µM

MOLECULE: Cc1c(-c2ncc(C(=O)N3CCc4[nH]cnc4[C@H]3c3nc4ccccc4s3)o2)cnn1C
REPORTED RESULT: < 0.5 µM

MOLECULE: Cn1nc(C(F)F)nc1C(=O)N1CCc2[nH]cnc2[C@@H]1c1nc2ccccc2s1
REPORTED RESULT: > 5 µM

MOLECULE: O=C(c1scnc1C1CC1)N1CCc2[nH]cnc2[C@@H]1c1nc2ccccc2s1
REPORTED RESULT: 1 to 5 µM

MOLECULE: CC(C)(O)c1nc(Cl)c(C(=O)N2CCc3[nH]cnc3[C@H]2c2nc3ccccc3s2)o1
REPORTED RESULT: < 0.5 µM

MOLECULE: CC(C)(O)c1nc(C(F)F)c(C(=O)N2CCc3[nH]cnc3[C@H]2c2nc3ccccc3s2)o1
REPORTED RESULT: < 0.5 µM

MOLECULE: Cc1nc(-c2ccccn2)oc1C(=O)N1CCc2[nH]cnc2[C@H]1c1nc2ccccc2s1
REPORTED RESULT: < 0.5 µM

MOLECULE: O=C(c1ncc(Cl)s1)N1CCc2[nH]cnc2[C@@H]1c1nc2ccccc2[nH]1
REPORTED RESULT: > 5 µM

MOLECULE: Cc1nn(C)cc1-c1nnc(C(=O)N2CCc3[nH]cnc3[C@@H]2c2nc3ccccc3s2)o1
REPORTED RESULT: 1 to 5 µM

MOLECULE: O=C(c1cnn2ccccc12)N1CCc2[nH]cnc2[C@@H]1c1nc2cccc(Br)c2s1
REPORTED RESULT: 1 to 5 µM

MOLECULE: Cn1nc(Cl)nc1C(=O)N1CCc2[nH]cnc2[C@@H]1c1nc2c(F)cccc2s1
REPORTED RESULT: 1 to 5 µM

MOLECULE: O=C(CCC1CC1)N1CCc2[nH]cnc2[C@@H]1c1nc2cccc(F)c2s1
REPORTED RESULT: 1 to 5 µM

MOLECULE: COc1cccc(/C=C/C(=O)N2CCc3[nH]cnc3[C@H]2c2nc3ccccc3s2)c1
REPORTED RESULT: 0.5 to 1 µM

MOLECULE: Cc1nn(C)c(Cl)c1C(=O)N1CCc2[nH]cnc2[C@H]1c1nc2c(F)cccc2s1
REPORTED RESULT: < 0.5 µM

MOLECULE: CN(C)Cc1ccc2c(C(=O)N3CCc4[nH]cnc4[C@H]3c3nc4ccccc4s3)cnn2c1
REPORTED RESULT: 0.5 to 1 µM

MOLECULE: Cc1ccc2c(C(=O)N3CCc4[nH]cnc4[C@H]3c3nc4ccccc4s3)cnn2c1
REPORTED RESULT: 0.5 to 1 µM
